# Test system: SK-MEL-28 melanoma
# Assay Protocol: NCI tumour cell line growth inhibition, 48 h

| Compound | GI50 |
| --- | --- |
| Cc1cc2c(F)c(Oc3ncnn4cc(OC[C@@H](C)OC(=O)[C@H](C)N)c(C)c34)ccc2[nH]1 | 12.9 µM |
| N.N.NC(CS)C(=O)[O-].NC(CS)C(=O)[O-].[Pt+4] (stereo not given) | > 50 µM |
| OCCCCC#Cc1ccccc1C#Cc1ccccc1C(F)(F)F | 13.2 µM |
| Cc1ccc2c(N)c(C(=O)N[C@H]3CCc4cc(N5CC6CCC(C5)N6)ccc4C3)sc2n1 | 0.586 µM |
| COc1ccc(-c2nc(-c3ccccc3)c(-c3ccccc3)n2C2CC2)cc1OC1CCCC1 | > 165 µM |
| C/C=C(\C)C(=O)O[C@H]1C=CC(=O)O[C@H]1CNC(=O)[C@H](C)O | 17.4 µM |
| O=C1c2ccccc2-c2c1c1ccccc1c(=O)n2CCCN1CCOCC1 | > 100 µM |
| COc1nc(C)cc2c(=O)n(-c3ccccc3)n(CCCN3CCN(c4ccc(Cl)cc4)CC3)c(=O)c12 | > 50 µM |
| O=C([CH-]C(=O)c1ccccc1)c1ccccc1.O=C([CH-]C(=O)c1ccccc1)c1ccccc1.[Nd+3].[OH-].[OH3+] | 11.5 µM |
| O=[N+]([O-])/C=C/c1c[nH]c2ccccc12 | 17.4 µM |
| COc1ccc(-c2nc(-c3cn(C)c4ncccc34)cs2)cc1 | 79.3 µM |
| Fc1ccc(-c2ccc(-c3nnc(-c4cc(F)c(Cl)cc4Cl)o3)o2)cc1Cl | 24.9 µM |
| O=c1cc(-c2ccccc2)nc2n1CCN2Cc1ccccc1 | 60 µM |
| N=C(N)CCCCCCCCC(=N)N | 58.1 µM |
| C=C(CN1CCc2ccccc2C1)c1ccc(C(=O)Nc2ccc(N)cc2)cc1 | 24.9 µM |
| O=C(NOCC1CC1)c1ccc(F)c(F)c1Nc1ccc(I)cc1Cl | 0.0526 µM |
| COc1ccc(/C=C\c2cc(OC)c(OC)c(OC)c2)cc1OCC(=O)Nc1nc2ccc(C(F)(F)F)cc2s1 | 3 µM |
| Cc1[nH]c(/C=C2\C(=O)Nc3ccc(F)cc32)c(C)c1C(=O)NC[C@H](O)CN1CCOCC1 | 4.16 µM |
| C[C@H]1CCC/C=C/[C@@H]2C[C@H](O)C[C@H]2[C@H](O)[C@@H](S(=O)CCN(C)C)CC(=O)O1 (stereo not given in full) | 0.586 µM |
| O=C1CCC2(C=C(Br)C(=O)C(Br)=C2)O1 | 1.69 µM |

====

# Tested on: T-47D breast
# Assay Protocol: NCI tumour cell line growth inhibition, 48 h

| Molecule | System | Inequality Symbol | TGI / µM |
| --- | --- | --- | --- |
| O=C1c2ccccc2-c2c1c1ccccc1c(=O)n2CCNCCNCCn1c2c(c3ccccc3c1=O)C(=O)c1ccccc1-2 | T-47D breast | = | 41.5 |
| CC(=O)CCC[C@@H](C)[C@@H]1O[C@H]([C@@]2(C)CCC(=O)O2)C[C@H]2C(CSc3ccccc3)C(=O)O[C@@H]12 (some centres undefined) | T-47D breast | = | 38 |
| O=S1(=O)CCN(Cc2ccccc2)/C1=N\S(=O)(=O)c1ccc(Cl)cc1 | T-47D breast | = | 39.5 |
| CC[N+](CC)(CC)CCCn1c2c(c3ccccc3c1=O)C(=O)c1ccccc1-2 | T-47D breast | > | 100 |
